Give measured Delta MST for each item. Keep answers brief.
System: Plasmodium berghei
assay_protocol: Change in mean survival time for control (average 6.2 days) versus treated mice (Mus musculus) 72 hrs after […] subcutaneous dose
Type: functional
State the answer as a number, implicitly in days.

Note to self: Delta MST recorded for "CCN(CC)Cc1cc(Nc2ccnc3cc(Cl)ccc23)cc(-c2c(F)cccc2F)c1O" was 2.7

Note to self: Delta MST recorded for "CCN(CC)Cc1cc(Nc2ccnc3cc(Cl)ccc23)cc(-c2ccccc2OC)c1O" was 0.2

Note to self: Delta MST recorded for "CC(C)(C)NCc1cc(Nc2ccnc3cc(Cl)ccc23)cc(-c2ccc(C(F)(F)F)cc2)c1O" was 3.4

Note to self: Delta MST recorded for "CC(C)CNCc1cc(Nc2ccnc3cc(Cl)ccc23)cc(-c2ccc(Cl)cc2)c1O" was 2
